Would you kindly list survival at 1 mg/kg for each of these compounds?
Test system: Mus sp.
MEASUREMENT_PROTOCOL: In vivo evaluation of % survival rate after peroral administration on 5th day at dose 1 mg/kg
Type: functional
CONDITION_DETAILS: Mus sp., po
One number for each entry, in %.

The following compounds each have a reported value; give each one's survival at 1 mg/kg.
1. C[C@H]1N(C(=O)c2ccc(OCC(F)(F)C(F)F)cc2)C[C@H](O)O[C@@]1(Cn1cncn1)c1ccc(F)cc1F (racemic)
2. C[C@H]1N(C(=O)c2ccc(C(F)(F)F)cc2)C[C@H](O)O[C@@]1(Cn1cncn1)c1ccc(Cl)cc1Cl (racemic)
3. C[C@H]1N(C(=O)c2ccc(C(F)(F)F)cc2)C[C@H](O)O[C@@]1(Cn1cncn1)c1ccc(F)cc1F (stereo in doubt; (-)-39a)
4. OC(Cn1cncn1)(Cn1cncn1)c1ccc(F)cc1F [FLUCONAZOLE]
5. C[C@@H](NC(=O)c1ccc(C(F)(F)F)cc1)[C@](O)(Cn1cncn1)c1ccc(F)cc1F
6. C[C@H]1N(C(=O)c2ccc(C(F)(F)F)cc2)CC(=O)O[C@@]1(Cn1cncn1)c1ccc(F)cc1F (racemic)

1. 50
2. 100
3. 100
4. 96
5. 100
6. 85

* * *

Test system: Aspergillus fumigatus
MEASUREMENT_PROTOCOL: In vitro evaluation of minimum inhibitory concentration against Aspergillus fumigatus 33
Type: functional
QUANTITY_KIND: MIC (µg/mL)
One number for each entry, in µg/mL.

For orientation, consider the following solved cases.
compound="C[C@H]1N(C(=O)c2ccc(C(F)(F)F)cc2)CCO[C@@]1(Cn1cncn1)c1ccc(F)cc1F (stereo in doubt)" quantity_kind=MIC numeric_value=10
compound="C[C@H]1N(C(=O)c2ccc(C(F)(F)F)cc2)CCO[C@@]1(Cn1cncn1)c1ccc(F)cc1F (stereo in doubt; (-)-41)" quantity_kind=MIC numeric_value=40

Let us examine a further case.
Dear colleague, I am looking for the recorded MIC of the following compound: `C[C@@H](NC(=O)c1ccc(C(F)(F)F)cc1)[C@](O)(Cn1cncn1)c1ccc(F)cc1F` 20

* * *

System: Candida albicans
MEASUREMENT_PROTOCOL: Evaluation of In vitro antifungal activity against Candida albicans 31 by broth macro dilution method
Format: functional
For each entry below, report its MIC value.
One number for each entry, in µg/mL.

Some entries whose results are on file:
compound="OC(Cn1cncn1)(Cn1cncn1)c1ccc(F)cc1F [FLUCONAZOLE]" system_tested="Candida albicans" numeric_value=0.25
compound="C[C@H]1N(C(=O)c2ccc(C(F)(F)F)cc2)C[C@H](O)O[C@@]1(Cn1cncn1)c1ccc(F)cc1F (stereo in doubt; (-)-39a)" system_tested="Candida albicans" numeric_value=0.5

Value lookup for MIC; key = C[C@H]1N(C(=O)c2ccc(C(F)(F)F)cc2)CCO[C@@]1(Cn1cncn1)c1ccc(F)cc1F (stereo in doubt; (-)-41) 0.125

* * *

Kindly state MIC for each of the entries shown.
System: Kluyveromyces marxianus
MEASUREMENT_PROTOCOL: In vitro evaluation of minimum inhibitory concentration against Candida pseudotropicalis 13
Type: functional
One number for each entry, in µg/mL.

Reference set (5 entries):
molecule="C[C@H]1N(C(=O)c2ccc(C(F)(F)F)cc2)CC(=O)O[C@@]1(Cn1cncn1)c1ccc(Cl)cc1Cl (stereo in doubt; (-)-32a)" quantity_kind=MIC unit_abbreviation=µg/mL numeric_value=10
molecule=C[C@H]1N(C(=O)c2ccc(C(F)(F)F)cc2)CC(=O)O[C@@]1(Cn1cncn1)c1ccc(F)cc1F quantity_kind=MIC unit_abbreviation=µg/mL numeric_value=80
molecule="C[C@H]1N(C(=O)c2ccc(C(F)(F)F)cc2)CCO[C@@]1(Cn1cncn1)c1ccc(F)cc1F (stereo in doubt; (-)-41)" quantity_kind=MIC unit_abbreviation=µg/mL numeric_value=40
molecule="C[C@H]1N(C(=O)c2ccc(C(F)(F)F)cc2)CC(=O)O[C@@]1(Cn1cncn1)c1ccc(Cl)cc1Cl (racemic)" quantity_kind=MIC unit_abbreviation=µg/mL numeric_value=20
molecule="C[C@@H](NC(=O)c1ccc(C(F)(F)F)cc1)[C@](O)(Cn1cncn1)c1ccc(F)cc1F (racemic)" quantity_kind=MIC unit_abbreviation=µg/mL numeric_value=40

// for each molecule in input: emit MIC
1. C[C@H]1N(C(=O)c2ccc(C(F)(F)F)cc2)C[C@H](O)O[C@@]1(Cn1cncn1)c1ccc(F)cc1F (racemic)
2. C[C@H]1N(C(=O)c2ccc(C(F)(F)F)cc2)CCO[C@@]1(Cn1cncn1)c1ccc(F)cc1F (racemic)

[10, 5]

* * *

Can you tell me MIC for the items I'm about to list?
Test system: Trichophyton benhamiae
MEASUREMENT_PROTOCOL: In vitro evaluation of minimum inhibitory concentration against Trichophyton mentagrophytes 23
Type: functional, Arthroderma benhamiae
Give bare numbers, in µg/mL.

Previously resolved entries follow.
molecule="C[C@H]1N(C(=O)c2ccc(C(F)(F)F)cc2)CCO[C@@]1(Cn1cncn1)c1ccc(F)cc1F (racemic)" quantity_kind=MIC unit_abbreviation=µg/mL numeric_value=80
molecule="C[C@H]1N(C(=O)c2ccc(C(F)(F)F)cc2)CCO[C@@]1(Cn1cncn1)c1ccc(F)cc1F (stereo in doubt)" quantity_kind=MIC unit_abbreviation=µg/mL numeric_value=10

Turning to the following molecule.
Which MIC value belongs to C[C@H]1N(C(=O)c2ccc(C(F)(F)F)cc2)CCO[C@@]1(Cn1cncn1)c1ccc(F)cc1F (stereo in doubt; (-)-41) ? 40

* * *

Give measured MIC for each item. Keep answers brief.
Tested on: Candida albicans
MEASUREMENT_PROTOCOL: Evaluation of In vitro antifungal activity against Candida albicans 2.01 by broth macro dilution method
Format: functional
Your reply should be a number followed by the unit it is expressed in.

compound=C[C@@H](NC(=O)c1ccc(C(F)(F)F)cc1)[C@](O)(Cn1cncn1)c1ccc(F)cc1F result="0.125 mg/L"
compound=OC(Cn1cncn1)(Cn1cncn1)c1ccc(F)cc1F result="1 mg/L"
compound="C[C@H]1N(C(=O)c2ccc(C(F)(F)F)cc2)C[C@H](O)O[C@@]1(Cn1cncn1)c1ccc(F)cc1F (stereo in doubt; (-)-39a)" result="2 mg/L"

Please supply MIC for each of the following items, keeping them in order.
1. C[C@H]1N(C(=O)c2ccc(C(F)(F)F)cc2)CCO[C@@]1(Cn1cncn1)c1ccc(F)cc1F (stereo in doubt; (-)-41)
2. CC(=O)N1CCN(c2ccc(OC[C@H]3CO[C@](Cn4ccnc4)(c4ccc(Cl)cc4Cl)O3)cc2)CC1

["0.25 mg/L", "0.063 mg/L"]

* * *

System: Kluyveromyces marxianus
MEASUREMENT_PROTOCOL: In vitro evaluation of minimum inhibitory concentration against Candida pseudotropicalis 13
Type: functional
CONDITION_DETAILS: Kluyveromyces marxianus; read-out: MIC
QUANTITY_KIND: MIC (µg/mL)
Answers are plain numbers, in µg/mL.

Known MIC results, listed for orientation:
molecule="C[C@H]1N(C(=O)c2ccc(C(F)(F)F)cc2)C[C@H](O)O[C@@]1(Cn1cncn1)c1ccc(Cl)cc1Cl (racemic)" quantity_kind=MIC unit_abbreviation=µg/mL numeric_value=0.15
molecule="CCC(C)n1ncn(-c2ccc(N3CCN(c4ccc(OC[C@H]5CO[C@](Cn6cncn6)(c6ccc(Cl)cc6Cl)O5)cc4)CC3)cc2)c1=O (some centres undefined)" quantity_kind=MIC unit_abbreviation=µg/mL numeric_value=80
molecule=CC(=O)N1CCN(c2ccc(OC[C@H]3CO[C@](Cn4ccnc4)(c4ccc(Cl)cc4Cl)O3)cc2)CC1 quantity_kind=MIC unit_abbreviation=µg/mL numeric_value=10
molecule="C[C@H]1N(C(=O)c2ccc(C(F)(F)F)cc2F)CC(=O)O[C@@]1(Cn1cncn1)c1ccc(F)cc1F (racemic)" quantity_kind=MIC unit_abbreviation=µg/mL numeric_value=80
molecule=OC(Cn1cncn1)(Cn1cncn1)c1ccc(F)cc1F quantity_kind=MIC unit_abbreviation=µg/mL numeric_value=80
molecule=C[C@@H](NC(=O)c1ccc(C(F)(F)F)cc1)[C@](O)(Cn1cncn1)c1ccc(F)cc1F quantity_kind=MIC unit_abbreviation=µg/mL numeric_value=40

Please give MIC, item by item, for the list that follows.
1. C[C@H]1N(C(=O)c2ccc(OCC(F)(F)C(F)F)cc2)CC(=O)O[C@@]1(Cn1cncn1)c1ccc(Cl)cc1Cl (racemic)
2. C[C@H]1N(C(=O)c2ccc(OCC(F)(F)C(F)F)cc2)CC(=O)O[C@@]1(Cn1cncn1)c1ccc(F)cc1F (racemic)

10
80

* * *

Tested on: Candida albicans
MEASUREMENT_PROTOCOL: Evaluation of In vitro antifungal activity against Candida albicans 406 by broth macro dilution method
Type: functional
Can you tell me MFC for the items I'm about to list?

compound="C[C@H]1N(C(=O)c2ccc(C(F)(F)F)cc2)C[C@H](O)O[C@@]1(Cn1cncn1)c1ccc(F)cc1F (stereo in doubt; (-)-39a)" result="> 64 µg/mL"
compound="C[C@H]1N(C(=O)c2ccc(C(F)(F)F)cc2)CCO[C@@]1(Cn1cncn1)c1ccc(F)cc1F (stereo in doubt; (-)-41)" result="> 64 µg/mL"

Go through the items and report each one's MFC.
1. CC(=O)N1CCN(c2ccc(OC[C@H]3CO[C@](Cn4ccnc4)(c4ccc(Cl)cc4Cl)O3)cc2)CC1
2. C[C@@H](NC(=O)c1ccc(C(F)(F)F)cc1)[C@](O)(Cn1cncn1)c1ccc(F)cc1F
3. OC(Cn1cncn1)(Cn1cncn1)c1ccc(F)cc1F

> 16 µg/mL
> 64 µg/mL
> 64 µg/mL
